tested on: Staphylococcus aureus X400; experiment: MIC, standard agar-dilution assay; format: cell-based; conditions: Staphylococcus aureus X400; Methicillin-resistant strain; agar dilution; read-out: MIC
EXPERIMENTAL ENDPOINT: MIC (µg/mL)
# output: bare number, implied unit µg/mL

These solved cases illustrate the format of a correct answer.
CCC1OC(=O)CC(O)C(C)C(OC2OC(C)C(O)C(N(C)C)C2O)C(CCOc2ccccc2)CC(C)C(=O)C=CC(C)=CC1COC1OC(C)C(OC(=O)C(NC(=O)OC(C)(C)C)c2ccccc2)C(OC)C1OC (centres unmarked) :: 8
CCC1OC(=O)CC(O)C(C)C(OC2OC(C)C(OC(C)=O)C(N(C)C)C2OC(C)=O)C(CCOc2ccccc2)CC(C)C(=O)C=CC(C)=CC1COC1OC(C)C(OC(C)=O)C(OC)C1OC (centres unmarked) :: 4
CCC1OC(=O)CC(O)C(C)C(OC2OC(C)C(O)C(N(C)C)C2O)C(CCN2CC(C)CC(C)C2)CC(C)C(=O)C=CC(C)=CC1COC1OC(C)C(OC(C)=O)C(OC)C1OC (centres unmarked) :: 1
CCC1OC(=O)CC(O)C(C)C(OC2OC(C)C(OC(C)=O)C(N(C)C)C2OC(C)=O)C(CCOc2ccccc2)CC(C)C(=O)C=CC(C)=CC1COC1OC(C)C(OC(=O)CCl)C(OC)C1OC (centres unmarked) :: 2

Attention now turns to another entry.
For record CCC1OC(=O)CC(O)C(C)C(OC2OC(C)C(O)C(N(C)C)C2O)C(CCOc2ccccc2)CC(C)C(=O)C=CC(C)=CC1COC1OC(C)C(OC(=O)C(N)c2ccccc2)C(OC)C1OC (centres unmarked) the listed MIC is 1

Sourced from patent EP0262903A2
